Species: Homo sapiens
Assay: Inhibition of full length His-tagged HSP90/GST-tagged Cdc37 (unknown origin) interaction at 100 uM after 1 hr by HTRF assay relative to control
READOUT KIND: inhibition (%)
The reply should contain only the number, in %.

Can you share its inhibition? I mean this molecule: `Cc1cc(NS(=O)(=O)c2ccc(NC(=O)CCCCC(=O)Nc3ccc(S(=O)(=O)Nc4cc(C)on4)cc3)cc2)no1`
20.7

Can you share its inhibition? I mean this molecule: CC1=C(O)C(=O)C=C2C1=CC=C1[C@@]2(C)CC[C@@]2(C)[C@@H]3C[C@](C)(C(=O)O)CC[C@]3(C)CC[C@]12C [CELASTROL]
92.3

Can you share its inhibition? I mean this molecule: `Cn1nccc1NS(=O)(=O)c1ccc(NC(=O)CCC(=O)Nc2ccc(S(=O)(=O)Nc3ccnn3C)cc2)cc1`
79.4

Can you share its inhibition? I mean this molecule: `COc1ccccc1N(CC(=O)N/N=C/c1ccc(OCC(=O)Nc2ccccc2Cl)cc1)S(=O)(=O)c1ccc(C)cc1`
13.6

Can you share its inhibition? I mean this molecule: `Cc1noc(NS(=O)(=O)c2ccc(NC(=O)CCC(=O)Nc3ccc(S(=O)(=O)Nc4onc(C)c4C)cc3)cc2)c1C`
48.7

Can you share its inhibition? I mean this molecule: `CCOC(=O)c1cccc(NC(=O)CSc2nnc(-c3ccc(O)cc3)n2Cc2ccccc2)c1`
14.1

Can you share its inhibition? I mean this molecule: `Cn1nccc1NS(=O)(=O)c1ccc(NC(=O)CC(=O)Nc2ccc(S(=O)(=O)Nc3ccnn3C)cc2)cc1`
50.9

Can you share its inhibition? I mean this molecule: `Cc1cc(C)c(NS(=O)(=O)c2ccc(NC(=O)CCCCC(=O)Nc3ccc(S(=O)(=O)Nc4c(C)cc(C)cc4C)cc3)cc2)c(C)c1`
21.5

# credit: ChEMBL document CHEMBL4138078
